target: 5-HT2A receptors (Rattus norvegicus, UniProt P14842); test: in-vitro affinity to 5-HT2A receptors, displacement of [3H]ketanserine (Example A1); format: binding; conditions: target not given; description names affinity to 5-HT2A receptors; read-out: IC50
Sequence (P14842 whole entry): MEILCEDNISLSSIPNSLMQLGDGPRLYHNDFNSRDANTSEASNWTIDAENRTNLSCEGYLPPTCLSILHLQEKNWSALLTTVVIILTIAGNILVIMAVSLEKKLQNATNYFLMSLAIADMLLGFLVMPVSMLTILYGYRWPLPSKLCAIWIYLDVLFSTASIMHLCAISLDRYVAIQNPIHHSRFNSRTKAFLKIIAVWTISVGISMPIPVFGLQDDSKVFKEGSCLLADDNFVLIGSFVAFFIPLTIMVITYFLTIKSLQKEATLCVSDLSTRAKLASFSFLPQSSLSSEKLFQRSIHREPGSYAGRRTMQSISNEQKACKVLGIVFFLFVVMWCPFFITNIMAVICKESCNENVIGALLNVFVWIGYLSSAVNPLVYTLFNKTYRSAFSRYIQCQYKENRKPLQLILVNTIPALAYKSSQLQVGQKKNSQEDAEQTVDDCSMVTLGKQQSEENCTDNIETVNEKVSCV
pIC50: −log10 of the molar value.
Could you label it satisfied if measured pIC50 is 7 or higher, and not satisfied otherwise?

Examples with answers:
Molecule | Label Class
CN1CCN(Cc2cc(-c3ccccc3F)n(-c3ccc(-c4ccccc4)cc3)n2)CC1 | not satisfied
CC(C)(C)OC(=O)N1CCC(NCc2cnn(-c3ccc(-c4ccccc4)cc3)c2-c2ccccc2F)C1 (centres unmarked) | not satisfied
CN(CCO)Cc1cnn(-c2ccc(-c3ccccc3)cc2)c1-c1ccccc1F | satisfied
Fc1ccccc1-c1c(C=NNC2=NCCN2)cnn1-c1ccc(-c2ccccc2)cc1 | not satisfied
COc1ccccc1-c1c(CN2CCN(C)CC2)cnn1-c1ccc(-c2ccsc2)cc1 | not satisfied

Task: Is pIC50 for `CN1CCN(Cc2cnn(-c3ccc(-c4ccccc4F)cc3)c2-c2ccc(F)cc2)CC1` at or above 7?
Result: not satisfied

Task: Dear colleague, could you confirm whether `Fc1ccccc1-c1cc(CN2CCOCC2)nn1-c1ccc(-c2ccccc2)cc1` has pIC50 at or above 7?
Result: not satisfied

Task: Hi team, for O=C1NCCCCC1NCc1cnn(-c2ccc(-c3ccccc3)cc2)c1-c1ccccc1F (centres unmarked) , is the recorded pIC50 at or above 7?
Result: not satisfied

Task: Reported pIC50 reaches at least 7 for `Fc1ccccc1-c1c(CN2CCN(Cc3ccsc3)CC2)cnn1-c1ccc(-c2ccccc2)cc1` ?
Result: not satisfied

====

molecular target: 5-HT2A receptors (Rattus norvegicus); test: in-vitro affinity to 5-HT2A receptors, displacement of [3H]ketanserine (Example A1); type: binding; conditions: target not given; description names affinity to 5-HT2A receptors; read-out: IC50
Value Type: log10(IC50) (log10 of the value in nM)
Form field - Quantity: IC50; Unit: nM; Scale: log10

Sample records with log10(IC50):
Molecule | log10(IC50)
Fc1ccccc1-c1c(CN2CCCCC2)cnn1-c1ccc(-c2ccccc2)cc1 | 1.48
O=c1ccccn1Cc1cnn(-c2ccc(-c3ccccc3)cc2)c1-c1ccccc1F | 2.30
CN1CCN(Cc2cnn(-c3ccc(-n4cccc4)cc3)c2-c2ccccc2F)CC1 | 1.23
Fc1ccccc1-c1c(CNC2CCNCC2)cnn1-c1ccc(-c2ccccc2)cc1 | 2.67
C=CCC(O)c1cnn(-c2ccc(-c3ccccc3)cc2)c1-c1ccccc1F (centres unmarked) | 3.11

Task: Recorded log10(IC50) for `Fc1ccccc1-c1c(CN2CCN(Cc3ccccc3)CC2)cnn1-c1ccc(-c2ccccc2)cc1` , please?
Result: 2.23

Task: I'd like to know its log10(IC50). The molecule in question is `Fc1ccccc1-c1cc(CN2CCCCC2)nn1-c1ccc(-c2ccccc2)cc1`
Result: 2.08

Task: Fill in the blank: the reported log10(IC50) of `O=C(NCCO)C1CCN(Cc2cnn(-c3ccc(-c4ccccc4)cc3)c2-c2ccccc2F)CC1` is ____.
Result: 2.43

Task: Look at this molecule and give its reported log10(IC50). `Fc1ccccc1-c1c(CN2CCC(Cc3cccnc3)CC2)cnn1-c1ccc(-c2ccccc2)cc1`
Result: 1.82

Task: I would be grateful if you could share the reported log10(IC50) for Fc1ccccc1-c1c(CNC2CCN(Cc3ccccc3)C2)cnn1-c1ccc(-c2ccccc2)cc1 (centres unmarked) .
Result: 2.49

====

target: 5 HT2C receptor (Homo sapiens)
Sequence (P28335 33-458): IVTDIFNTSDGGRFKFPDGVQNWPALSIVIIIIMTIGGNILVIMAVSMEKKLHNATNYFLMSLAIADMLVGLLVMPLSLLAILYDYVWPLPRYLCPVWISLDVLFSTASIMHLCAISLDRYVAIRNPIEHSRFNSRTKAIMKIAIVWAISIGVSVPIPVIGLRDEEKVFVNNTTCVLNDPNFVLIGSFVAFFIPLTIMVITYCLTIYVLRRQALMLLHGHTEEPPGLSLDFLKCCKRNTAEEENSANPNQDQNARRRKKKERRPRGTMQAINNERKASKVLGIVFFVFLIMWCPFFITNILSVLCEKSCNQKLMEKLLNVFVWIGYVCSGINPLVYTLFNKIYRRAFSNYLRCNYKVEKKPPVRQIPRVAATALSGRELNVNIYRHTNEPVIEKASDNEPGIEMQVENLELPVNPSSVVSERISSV
Value Type: IC50

Use these answered entries as a reference point.
Molecule | Target Under Test | IC50
CN1CCN(Cc2cnn(-c3ccc(-c4ccccc4)cn3)c2-c2ccccc2F)CC1 [Example 922] | 5 HT2C receptor (Homo sapiens) | 660 nM
CN1CCN(Cc2cnn(-c3ccc(-c4ccccc4)cc3)c2-c2cccnc2)CC1 [Example 1035] | 5 HT2C receptor (Homo sapiens) | 1000 nM

Next molecule, please.
Task: # value lookup — system 5 HT2C receptor (Homo sapiens), readout IC50, item CN(C)CCN(C)Cc1cnn(-c2ccc(-c3ccc(F)cc3)cc2)c1-c1ccccc1Cl [Example 946]
Result: 490 nM

====

Target: 5-HT2A receptors (Rattus norvegicus, UniProt P14842)
Assay: in-vitro affinity to 5-HT2A receptors, displacement of [3H]ketanserine (Example A1)
Assay type: binding
Conditions: read-out: HT2A IC50
Source text: The 5-HT2A receptors are exposed both to [^3H]ketanserine (a substance which is known for its affinity to the receptor) and also to the test compound. The decrease in the affinity of [^3H]ketanserine to the receptor is an indication of the affinity of the test substance to the 5-HT2A receptor.
Value Type: IC50 (nM)
Write down the numeric answer in nM and omit the unit.

Molecule | Target Under Test | Units | IC50
Fc1ccccc1-c1c(C=CCN2CCOCC2)cnn1-c1ccc(-c2ccccc2)cc1 | 5-HT2A receptors (Rattus norvegicus, UniProt P14842) | nM | 17

Task: Look up IC50 with 5-HT2A receptors (Rattus norvegicus, UniProt P14842) for this molecule: `CN1CCN(Cc2cnn(-c3ccc(C(F)(F)F)cc3)c2-c2ccccc2F)CC1`
Result: 133

Task: What is its IC50 for 5-HT2A receptors (Rattus norvegicus, UniProt P14842)? Entry: `CN1CCN(Cc2cnn(-c3ccc(Br)cc3)c2-c2ccccc2F)CC1`
Result: 130

Task: Look up IC50 with 5-HT2A receptors (Rattus norvegicus, UniProt P14842) for this molecule: `CCC1(O)CCN(Cc2cnn(-c3ccc(-c4ccccc4)cc3)c2-c2ccccc2F)CC1`
Result: 280

Task: Kindly state the measured IC50 obtained for O=C(CN1CCN(Cc2cnn(-c3ccc(-c4ccccc4)cc3)c2-c2ccccc2F)CC1)N1CCCC1 [Example 1038] with 5-HT2A receptors (Rattus norvegicus, UniProt P14842).
Result: 311

Task: Look up IC50 with 5-HT2A receptors (Rattus norvegicus, UniProt P14842) for this molecule: `COc1ccccc1-c1c(CN2CCN(C)CC2)cnn1-c1ccc(-c2ccsc2)cc1`
Result: 460

Task: Lab request: please report IC50 under test system 5-HT2A receptors (Rattus norvegicus, UniProt P14842) for `Fc1ccccc1-c1c(CN2CC=CC2)cnn1-c1ccc(-c2ccccc2)cc1`
Result: 36

Task: Param readout = IC50; param system = 5-HT2A receptors (Rattus norvegicus, UniProt P14842); param query = `CN1CCN(Cc2cnn(-c3ccc(-c4cccc(C#N)c4)cc3)c2-c2ccccc2F)CC1` ; response: value
Result: 140

Task: # get_value(readout= IC50, system= 5-HT2A receptors (Rattus norvegicus, UniProt P14842)) for `CCOC(=O)N1CCC(N(C)Cc2cnn(-c3ccc(-c4ccccc4)cc3)c2-c2ccccc2F)CC1`
Result: 170

====

Entries and their measured IC50 follow.
target: 5-HT2A receptors (Rattus norvegicus, UniProt P14842); assay: in-vitro affinity to 5-HT2A receptors, displacement of [3H]ketanserine (Example A1); assay type: binding; details: read-out: HT2A IC50
Respond numerically; units are nM and should not be typed.

Examples with answers:
Compound | IC50 / nM
O=c1ccccn1Cc1cnn(-c2ccc(-c3ccccc3)cc2)c1-c1ccccc1F [Example 1012] | 200
Fc1ccc(F)c(-c2ccc(-n3ncc(CNc4cc[nH]n4)c3-c3ccccc3F)cc2)c1 [Example 1005] | 180
CCNC(=O)CN1CCN(Cc2cnn(-c3ccc(-c4ccccc4)cc3)c2-c2ccccc2F)CC1 [Example 1018] | 230
O=C(CN1CCN(Cc2cnn(-c3ccc(-c4ccccc4)cc3)c2-c2ccccc2F)CC1)N1CCCC1 [Example 985] | 122

Task: Sample COc1ccc(-c2c(CN3CCN(C(C)C)CC3)cnn2-c2ccc(-c3ccc(F)cc3)cc2)cc1 [Example 1040] — what was its IC50?
Result: 320

Task: // IC50 lookup, key: Fc1ccc(-c2ccc(-n3ncc(CN(Cc4cnn(-c5ccc(-c6ccc(F)cc6)cc5)c4-c4ccco4)C4CC4)c3-c3ccco3)cc2)cc1 [Example 982]
Result: 110

Task: Find the recorded IC50 belonging to Fc1ccccc1-c1c(CN2CCc3ccccc3C2)cnn1-c1ccc(-c2ccccc2)cc1 [Example 964] and report it.
Result: 70

Task: Fill in the blank: the reported IC50 of CN1CCN(Cc2cnn(-c3ccc(-c4cccc(Cl)c4)cc3)c2-c2ccccc2F)CC1 [Example 963] is ____.
Result: 69

Task: So what's the measured IC50 for this one? CN(C)C(=O)CNCc1cnn(-c2ccc(-c3ccccc3)cc2)c1-c1ccccc1F [Example 1010]
Result: 200

Task: Entry CC(C)(C)OC(=O)N1CCC(NCc2cnn(-c3ccc(-c4ccccc4)cc3)c2-c2ccccc2F)C1 (stereo not shown) [Example 1056] has what IC50?
Result: 460

====

target: 5-HT2A receptors (Rattus norvegicus); experiment: in-vitro affinity to 5-HT2A receptors, displacement of [3H]ketanserine (Example A1); format: binding; conditions: read-out: HT2A IC50
Value Type: pIC50
pIC50 is a log-scale quantity: -log10 of the concentration expressed in molar.

Compound | Recorded Number
CN1CCN(Cc2cnn(-c3ccc(-c4cccnc4)cc3)c2-c2ccccc2F)CC1 | 6.77

Task: Sample `O=C1NCN(c2ccccc2)C12CCN(Cc1cnn(-c3ccc(-c4ccccc4)cc3)c1-c1ccccc1F)CC2` — what was its pIC50?
Result: 6.40

Task: Given the compound `CCN1CCN(CCc2cnn(-c3ccc(-c4ccc(F)cc4)cc3)c2-c2ccccc2F)CC1` , what is its reported pIC50?
Result: 7.55

Task: Consider the compound `c1ccc(-c2ccc(-n3ncc(CNCc4ccccn4)c3-c3ccccc3)cc2)cc1` and give its measured pIC50.
Result: 7.64

Task: Request the reported pIC50 associated with `CN1CCN(Cc2cnn(-c3ccc(-c4cc(Cl)cc(Cl)c4)cc3)c2-c2ccccc2F)CC1`
Result: 7.07
